Catalogue of solubility kinetic readings, one per entry.
Conditions: buffer; pH 7.4; 200.0 µM

# COMPOUND, solubility kinetic
measured = [
    ("COc1ccc(C(=O)/C=C/Nc2cc(C)ccn2)cc1", "5.8 µg/mL"),
    ("CC1=C([N+](=O)[O-])C(c2ccccc2)NC(=O)N1 (stereo unspecified)", "> 35 µg/mL"),
    ("CC(=O)CC(c1ccccc1)S(=O)(=O)c1ccc([N+](=O)[O-])cc1 (stereo unspecified)", "> 50 µg/mL"),
    ("O=C(NN1CCOCC1)c1ccc(F)cc1", "> 33.6 µg/mL"),
    ("CC1CN(C(=O)COC(=O)c2cccc(S(=O)(=O)N3CCc4ccccc43)c2)CC(C)O1 (stereo unspecified)", "15.3 µg/mL"),
    ("O=C(CSc1cccc2cccnc12)Nc1cc(C(=O)O)cc(C(=O)O)c1", "52 µg/mL"),
    ("COc1cccc(C(=O)Nc2cccc3cccnc23)c1OC", "< 0.3 µg/mL"),
    ("CCn1cc(S(=O)(=O)N2CCCC2)cn1", "> 34.4 µg/mL"),
    ("O=C1CNC(=S)N1C(CO)c1ccccc1 (stereo unspecified)", "> 35.4 µg/mL"),
    ("O=C(COC(=O)c1ccc(O)cc1)NC1CCCC1", "> 39.5 µg/mL"),
    ("N#CCOc1ccccc1/C=C/c1nc2ccccc2c(=O)[nH]1", "5 µg/mL"),
]

---

Details: buffer; pH 7.4; 200.0 µM
Catalogue of solubility kinetic readings, one per entry.
REPORTED ENDPOINT: solubility kinetic

# MOLECULE, VALUE OBSERVED
measured = [
    ("O=C(O)CN1CCN(Cc2cccc(Cl)c2)C1=O", "> 40.3 µg/mL"),
    ("O=C(O)CC1(CC(=O)NCc2cccc(Cl)c2)CCCCC1", "> 48.6 µg/mL"),
    ("COc1ccccc1NC(=O)C1CCCN(C(=O)NCc2ccccc2)C1 (stereo unspecified)", "> 55.1 µg/mL"),
    ("Cc1cc(Cl)ccc1NC(=O)CN1CCCC1", "> 37.9 µg/mL"),
    ("Cn1c(N)c(S(=O)(=O)N2CCCC2)c(=O)n(C)c1=O", "> 43.2 µg/mL"),
    ("CCc1ccc(C(=O)NC(C(=O)NCC2CCCO2)C(C)C)cc1 (stereo unspecified)", "> 49.9 µg/mL"),
    ("CCn1ncc(-c2ccnc3cc(C(=O)O)nn23)c1C", "> 40.7 µg/mL"),
    ("COc1cccc(C(C)NC(=O)c2ccncc2)c1 (stereo unspecified)", "> 38.4 µg/mL"),
    ("CCC(NC(=S)NCc1ccc(F)cc1)c1ccc(C(C)C)cc1 (stereo unspecified)", "< 0.4 µg/mL"),
    ("O=C(O)c1ccn(COc2ccc(Br)cc2)n1", "> 44.6 µg/mL"),
    ("Cc1cnc(C(=O)OCC(=O)c2cc(C)n(C)c2C)cn1", "> 43.1 µg/mL"),
]

---

Details: buffer; pH 7.4; 200.0 µM
Catalogue of solubility kinetic readings, one per entry.

# COMPOUND, solubility kinetic
measured = [
    ("Cc1cc(C)n2nc(C(=O)N/N=C/c3cn(C)nc3C)nc2n1", "> 46.8 µg/mL"),
    ("CCC(=O)c1cn(CC(=O)Nc2cccc(C)c2C)c2ccccc12", "< 0.4 µg/mL"),
    ("NCCCNc1nc(N)c([N+](=O)[O-])c(NC2CCCCC2)n1", "> 46.4 µg/mL"),
    ("CCOC(=O)C1=C(C)NC2=C(C(=O)OC2)C1c1ccccc1 (stereo not given)", "> 44.9 µg/mL"),
    ("O=C(c1cccc(F)c1)N1CCC(c2nc3ccccc3s2)CC1", "> 51.1 µg/mL"),
    ("COC(=O)c1ccc(C(=O)Nc2ccc3c(c2)C(=O)NC3=O)cc1", "< 0.3 µg/mL"),
    ("CCC(=O)Nc1ccc(S(=O)(=O)Nc2ccccn2)cc1", "> 45.8 µg/mL"),
    ("CSc1ccc(C(=O)NCC(c2ccco2)N(C)C)cc1[N+](=O)[O-] (stereo not given)", "> 52.4 µg/mL"),
    ("CCCC(=O)N(Cc1cc(=O)[nH]c2ccccc12)c1ccccc1", "> 48.1 µg/mL"),
    ("CN(C)c1nc2ncn(Cc3ccccc3)c2c(=O)[nH]1", "> 40.4 µg/mL"),
]
